Target: α-Glucosidase Type I (calf liver) (Bos taurus, UniProt A0A3Q1M9D9)
Construct: host or cells: calf liver
Sequence (A0A3Q1M9D9 1-839): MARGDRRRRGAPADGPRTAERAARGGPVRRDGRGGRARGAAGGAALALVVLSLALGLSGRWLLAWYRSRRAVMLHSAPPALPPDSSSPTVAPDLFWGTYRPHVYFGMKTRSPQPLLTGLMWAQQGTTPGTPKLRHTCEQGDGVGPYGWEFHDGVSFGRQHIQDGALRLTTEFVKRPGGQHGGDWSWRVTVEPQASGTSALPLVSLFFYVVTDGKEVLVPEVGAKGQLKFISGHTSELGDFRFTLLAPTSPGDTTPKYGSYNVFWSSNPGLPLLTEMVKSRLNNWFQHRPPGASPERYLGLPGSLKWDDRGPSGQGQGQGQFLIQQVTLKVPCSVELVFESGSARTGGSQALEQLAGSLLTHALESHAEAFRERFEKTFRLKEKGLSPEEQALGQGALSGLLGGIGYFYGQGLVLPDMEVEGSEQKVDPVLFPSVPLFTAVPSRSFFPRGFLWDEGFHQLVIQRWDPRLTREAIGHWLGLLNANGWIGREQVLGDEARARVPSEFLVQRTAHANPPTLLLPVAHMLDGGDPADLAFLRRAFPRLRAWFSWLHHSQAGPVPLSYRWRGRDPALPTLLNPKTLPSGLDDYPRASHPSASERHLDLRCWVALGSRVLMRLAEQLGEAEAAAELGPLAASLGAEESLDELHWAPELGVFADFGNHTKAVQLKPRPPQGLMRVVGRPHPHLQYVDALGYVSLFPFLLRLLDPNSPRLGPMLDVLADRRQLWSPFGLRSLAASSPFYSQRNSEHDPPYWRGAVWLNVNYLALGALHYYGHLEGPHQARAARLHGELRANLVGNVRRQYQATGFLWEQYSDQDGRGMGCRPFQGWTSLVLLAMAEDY
Experiment: Glycosidase inhibition, α-glucosidase Type I (calf liver)
Type: biochemical
Conditions: footnote not given
PROPERTY_NAME: Ki (nM)

INSERT INTO assay_data (compound, property_name, obs_value) VALUES
  ('CN1CC(O)C(O)C(O)C1CO (stereo not shown) [Compound 19, N-methyl 1-deoxynojirimycin]', 'Ki', 70);

====

Target: α-Glucosidase (BY) (Saccharomyces cerevisiae, UniProt P07265)
Construct: purchased Sigma
Sequence (P07265 whole entry): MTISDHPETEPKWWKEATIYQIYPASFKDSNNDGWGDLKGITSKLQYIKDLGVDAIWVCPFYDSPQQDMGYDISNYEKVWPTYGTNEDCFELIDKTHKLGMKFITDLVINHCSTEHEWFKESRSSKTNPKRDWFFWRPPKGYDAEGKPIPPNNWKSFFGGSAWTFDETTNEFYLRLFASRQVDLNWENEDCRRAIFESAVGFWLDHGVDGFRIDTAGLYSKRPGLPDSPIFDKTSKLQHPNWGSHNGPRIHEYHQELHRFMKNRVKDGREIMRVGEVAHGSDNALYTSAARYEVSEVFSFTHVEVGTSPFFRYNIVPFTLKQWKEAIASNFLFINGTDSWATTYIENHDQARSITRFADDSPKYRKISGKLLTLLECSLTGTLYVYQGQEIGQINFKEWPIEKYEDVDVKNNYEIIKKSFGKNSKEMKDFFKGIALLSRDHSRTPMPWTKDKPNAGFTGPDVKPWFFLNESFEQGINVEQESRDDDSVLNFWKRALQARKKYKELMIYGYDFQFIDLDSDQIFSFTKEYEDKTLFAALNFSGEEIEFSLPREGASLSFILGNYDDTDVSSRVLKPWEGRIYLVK
Test: Glycosidase inhibition, α-glucosidase from brewers yeast
Assay type: biochemical
Conditions: pH 6.5, p-nitrophenyl α-D-glucoside, Lineweaver-Burk; read-out: Ki (M), α-Glucosidase (BY)
Attribute: Ki
PROPERTY_NAME: Ki (M)

INSERT INTO results (compound, obs_value) VALUES
  ('C[C@@H]1[C@@H](O)[C@H](O)[C@@H](O)CN1C [Compound 17]', 0.00178),
  ('CC1C(O)C(O)C(O)C[N+]1(C)[O-] (centres unmarked) [Compound 18]', 0.00695);

====

Biological target: α-Glucosidase (BY) (Saccharomyces cerevisiae, UniProt P07265)
Construct: purchased Sigma
Experiment: Glycosidase inhibition, α-glucosidase from brewers yeast
Type: biochemical
PROPERTY_NAME: Ki (µM)

INSERT INTO results (molecule, property_name, output_unit, obs_value) VALUES
  ('CN1CC(O)C(O)C(O)C1CO (stereo not drawn)', 'Ki', 'µM', 369),
  ('OCC1NCC(O)C(O)C1O (stereo not drawn)', 'Ki', 'µM', 8.67),
  ('C[C@H]1NC[C@H](O)[C@@H](O)[C@@H]1O', 'Ki', 'µM', 1560);

====

Biological target: α-L-Fucosidase
Assay: α-L-Fucosidase inhibition, hydrolysis of p-nitrophenyl-α-L-fucoside
Type: biochemical
Conditions: noncompetitive inhibitor, analog of p-nitrophenol; read-out: Kis
PROPERTY_NAME: Ki (µM)

INSERT INTO measurements (compound, obs_value) VALUES
  ('Oc1ccccc1 [phenol]', 180);
